switch fluorescence ratio values by entry
tested on: ATP; experiment: switch fluorescence ratio, 500 uM ATP over buffer (Cy3 cluster intensity, sum of 5 cycles each) (fold (ratio)); higher = stronger signal-on switching upon ATP binding; sequences stand for … in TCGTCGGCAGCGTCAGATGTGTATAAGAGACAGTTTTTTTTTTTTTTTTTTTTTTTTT…TC; conditions: aptamer strand: ATP DNA aptamer (quencher-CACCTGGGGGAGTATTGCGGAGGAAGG + anchor), 100 nM annealed; ATP concentration: 500 uM;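 note: ATP exposure 15 min at 22 °C before imaging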

# entry sequence, switch fluorescence ratio
data = [
    ("TTAAATCTCG", 0.989),
    ("AGGTGGGTTT", 0.988),
    ("CCTTTTGCCA", 1.1),
    ("GCTGGGGCAA", 1.01),
    ("GCGCTTGAAT", 0.982),
    ("GATTAAGGGT", 1.04),
    ("TTCGATTTGG", 1.03),
    ("CATGGTAAAT", 0.984),
    ("ATGTGGGGAG", 0.994),
    ("GAGGGATGTT", 1.01),
    ("CGGGACTCCG", 1.02),
    ("TTAGGTTTGG", 1.05),
    ("GAGGTCGAAA", 0.98),
]
